Catalogue of TGI readings, one per entry.
Tested on: TK-10 renal
test-method-notes: NCI tumour cell line growth inhibition, 48 h
value-kind: TGI

• Clc1ccc(OC2CCO2)cc1Cl (stereo unspecified) = > 100 µM
• O=c1c2ccccc2c(=O)c2c1cc(Cl)c1[nH]c3c([nH]c12)c(Cl)cc1c(=O)c2ccccc2c(=O)c13 = > 100 µM
• CSc1nc2c(N)ncnc2n1C = > 100 µM
• COc1c(CNC(=O)CCl)cc2[nH]c(C)cc2c1CNC(=O)CCl = 56.7 µM
• O=c1c2cc(Br)cc(Br)c2[nH]c(=S)n1-c1ccccc1 = > 100 µM
• C[C@H]1CC(=O)C2=CCCC3(SCCCS3)[C@@H]2[C@H]1CO = > 100 µM
• COC(=O)NN=C(c1ccc(Cl)cc1)c1ccc(Cl)cc1 = > 100 µM
• Nc1nc(NNc2ccc(Cl)c(Cl)c2)cc(=O)[nH]1 = > 100 µM
• O=c1cc(-c2ccccc2)oc2ccc(Oc3nnnn3-c3ccccc3)cc12 = > 100 µM
• Clc1ccc(-c2nn3ncccc3c2-c2ccnc(Nc3ccccc3)n2)cc1 = > 20.4 µM
• CCOC(=O)C(=O)N=Nc1nc2c(O)c3ccccc3c(O)c2s1 = 39.6 µM
